Reference for the values: ChEMBL document CHEMBL1773023

# SYSTEM: Signal transducer and activator of transcription 3 (Homo sapiens)
Overview of recorded Ki for various molecules

| SMILES_REPR | Ki |
| --- | --- |
| C/C(=C\C(=O)N[C@@H](CC(C)C)C(=O)N1C[C@H]2C[C@H]2[C@H]1C(=O)N[C@@H](CCC(N)=O)C(=O)NCc1ccccc1)c1ccc(OP(=O)(O)O)cc1 | 0.043 µM |
| C/C(=C\C(=O)N[C@H]1CCc2cccc3c2N(C1=O)[C@H](C(=O)NCCNC(N)=O)C3)c1ccc(OP(=O)(O)O)cc1 | 0.386 µM |
| C/C(=C\C(=O)N[C@@H](CC(C)C)C(=O)N1CCC[C@H]1C(=O)N[C@@H](CCC(N)=O)C(=O)NCc1ccccc1)c1ccc(OP(=O)(O)O)cc1 | 0.066 µM |
| CCCC[C@H](NC(=O)/C=C(\C)c1ccc(OP(=O)(O)O)cc1)C(=O)N1C[C@H]2C[C@H]2[C@H]1C(=O)N[C@H](C)CCC(N)=O | 0.066 µM |
| C/C(=C\C(=O)N[C@@H](CC(C)C)C(=O)N1C[C@H]2C[C@H]2[C@H]1C(=O)NCCOC(N)=O)c1ccc(OP(=O)(O)O)cc1 | 0.193 µM |
| C/C(=C\C(=O)N[C@@H](CC(C)C)C(=O)N1C[C@H]2C[C@H]2[C@H]1C(=O)N[C@H](C)CCC(N)=O)c1ccc(OP(=O)(O)O)cc1 | 0.083 µM |

====

# System: MDA-MB-468
# PROTOCOL_TEXT: Cytotoxicity against human MDA-MB-468 cells after 72 hrs by MTT assay
# Assay type: functional, cell-based
# ASSAY_CONDITIONS: MDA-MB-468, 72 h
pIC50: −log10 of the molar value.

| SMILES_REPR | SYSTEM | pIC50 |
| --- | --- | --- |
| CCCC[C@H](NC(=O)/C=C(\C)c1ccc(C(F)(F)P(=O)(OCOC(=O)C(C)(C)C)OCOC(=O)C(C)(C)C)cc1)C(=O)N1C[C@@H]2C[C@@H]2[C@@H]1C(=O)N[C@H](C)CCC(N)=O | MDA-MB-468 | 4.52 |
| CCCC[C@H](NC(=O)/C=C(\C)c1ccc(C(F)(F)P(=O)(OCOC(=O)C(C)(C)C)OCOC(=O)C(C)(C)C)cc1)C(=O)N1C[C@H]2C[C@H]2[C@H]1C(=O)N[C@H](C)CCC(N)=O | MDA-MB-468 | 4.52 |

====

Signal transducer and activator of transcription 3 (Homo sapiens, UniProt P40763) measurements of pKi, listed per entry.
Sequence (P40763 whole entry): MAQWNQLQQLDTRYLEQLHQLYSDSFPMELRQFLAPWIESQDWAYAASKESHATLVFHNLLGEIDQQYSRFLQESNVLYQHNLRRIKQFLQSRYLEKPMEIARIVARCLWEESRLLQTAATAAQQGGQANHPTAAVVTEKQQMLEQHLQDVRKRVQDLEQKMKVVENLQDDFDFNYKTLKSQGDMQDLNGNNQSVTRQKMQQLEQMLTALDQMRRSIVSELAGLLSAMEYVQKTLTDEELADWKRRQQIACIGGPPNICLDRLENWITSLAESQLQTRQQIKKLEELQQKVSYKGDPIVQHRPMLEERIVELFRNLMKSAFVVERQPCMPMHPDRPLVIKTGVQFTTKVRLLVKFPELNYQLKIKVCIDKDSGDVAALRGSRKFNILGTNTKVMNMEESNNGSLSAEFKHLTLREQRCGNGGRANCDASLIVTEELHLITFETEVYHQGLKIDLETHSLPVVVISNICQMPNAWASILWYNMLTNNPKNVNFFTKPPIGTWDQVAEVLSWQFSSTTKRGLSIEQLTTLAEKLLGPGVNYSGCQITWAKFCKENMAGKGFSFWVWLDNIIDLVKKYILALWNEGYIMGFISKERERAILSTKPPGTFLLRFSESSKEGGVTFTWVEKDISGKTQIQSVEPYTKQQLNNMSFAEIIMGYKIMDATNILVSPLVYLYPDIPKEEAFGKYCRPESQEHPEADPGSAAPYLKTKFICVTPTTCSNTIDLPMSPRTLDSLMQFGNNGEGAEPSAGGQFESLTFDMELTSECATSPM
pKi: −log10 of the molar value.

| SMILES_REPR | pKi |
| --- | --- |
| CCCC[C@H](NC(=O)/C=C(\C)c1ccc(OP(=O)(O)O)cc1)C(=O)N1C[C@H]2C[C@H]2[C@H]1C(=O)N[C@@H](CCC(N)=O)C(=O)NCc1ccccc1 | 7.48 |
| C/C(=C\C(=O)N[C@@H](CC(C)C)C(=O)N1CCC[C@H]1C(=O)NCCOC(N)=O)c1ccc(OP(=O)(O)O)cc1 | 6.69 |
| C/C(=C\C(=O)N[C@@H](CC(C)C)C(=O)N1CCC[C@H]1C(=O)NCCNC(N)=O)c1ccc(OP(=O)(O)O)cc1 | 7.03 |
| C/C(=C\C(=O)N[C@H]1CCc2cccc3c2N(C1=O)[C@H](C(=O)NCCOC(N)=O)C3)c1ccc(OP(=O)(O)O)cc1 | 6.73 |
| CCCC[C@H](NC(=O)/C=C(\C)c1ccc(OP(=O)(O)O)cc1)C(=O)N1C[C@H]2C[C@H]2[C@H]1C(=O)NCCOC(N)=O | 6.94 |
| C/C(=C\C(=O)N[C@H]1CCc2cccc3c2N(C1=O)[C@H](C(=O)N[C@H](C)CCC(N)=O)C3)c1ccc(OP(=O)(O)O)cc1 | 6.98 |
| CCCC[C@H](NC(=O)/C=C(\C)c1ccc(OP(=O)(O)O)cc1)C(=O)N1C[C@H]2C[C@H]2[C@H]1C(=O)NCCNC(N)=O | 7.34 |
| CCCC[C@H](NC(=O)/C=C/c1ccc(OP(=O)(O)O)cc1)C(=O)N1C[C@H]2C[C@H]2[C@H]1C(=O)N[C@@H](CCC(N)=O)C(=O)NCc1ccccc1 | 7.32 |
| C/C(=C\C(=O)N[C@@H](CC(C)C)C(=O)N1C[C@H]2C[C@H]2[C@H]1C(=O)NCCNC(N)=O)c1ccc(OP(=O)(O)O)cc1 | 7.41 |
| C/C(=C\C(=O)N[C@@H](CC(C)C)C(=O)N1CCC[C@H]1C(=O)N[C@H](C)CCC(N)=O)c1ccc(OP(=O)(O)O)cc1 | 6.84 |
| C/C(=C\C(=O)N[C@H]1CCc2cccc3c2N(C1=O)[C@H](C(=O)N[C@@H](CCC(N)=O)C(=O)NCc1ccccc1)C3)c1ccc(OP(=O)(O)O)cc1 | 7.24 |
